scaled log2 fold change reference
B1: library; numbered along this chain (parent)
chain: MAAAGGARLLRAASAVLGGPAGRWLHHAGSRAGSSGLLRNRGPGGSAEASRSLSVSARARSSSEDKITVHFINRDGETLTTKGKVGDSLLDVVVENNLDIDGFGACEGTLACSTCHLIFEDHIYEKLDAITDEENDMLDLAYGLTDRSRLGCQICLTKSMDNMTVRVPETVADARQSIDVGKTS

# Variants of: B1
# protocol_summary: scaled log2 fold change in cell abundance, elesclomol vs control (0 = silent mean, 1 = nonsense mean) (scaled log2 ratio); higher = higher viability under elesclomol (loss of FDX1 cuproptosis function);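 note: variant abundance is its share of total variant reads in each endpoint sample, from next-generation sequencing of the integrated ORF PCR-amplified out of genomic DNA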
# assay_context: with HEK293T FDX1 KO; elesclomol 40 nM; glucose 10 mM; 11 days
I only need the number, thanks.

{"columns": ["mutation_label", "scaled log2 fold change"],
 "data": [
  ["G29M", -0.568],
  ["D136G", 0.805],
  ["T80Y", -0.203],
  ["P168H", 0.136]
]}

Would you kindly share the measured scaled log2 fold change for G44C ?
0.858

Again, but for T157Q
1.04

Again, but for G102W
0.879

Again, but for G5K
0.00379

Again, but for V92K
0.724

Again, but for D65Y
0.288

Again, but for E133Y
0.898

Again, but for D101G
-0.787

Reference source: the supplement of paper PMC12855868
